Provenance of the data: paper PMC8048816

Target: LecA (Pseudomonas aeruginosa)
Sequence (Q05097 2-122 limits assumed): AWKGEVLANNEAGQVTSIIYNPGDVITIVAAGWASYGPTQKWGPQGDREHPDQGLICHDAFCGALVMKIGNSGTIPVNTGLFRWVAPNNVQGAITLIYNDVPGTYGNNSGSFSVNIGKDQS
Type: binding
Settings: read-out: FP Inhibition [%] at 4 mM
MEASURE: inhibition at 4000 µM (%)

[P] N#Cc1cccc(O)c1O [Compound 3, 3‐cyano catechol]
[Q] CC(C)C(=O)c1ccc(O)c(O)c1 [Compound 21, 4‐isobutyryl catechol]
[R] O=C(c1ccccc1)c1ccc(O)c(O)c1 [Compound 23, 4‐benzoyl catechol]
Query: // ranking: key=inhibition at 4000 µM, reverse=True Respond with an ordered listing of the labels, as requested.
Result: R, P, Q
(R: 39%, P: 23%, Q: 10%)

---

target: LecA (Pseudomonas aeruginosa, UniProt Q05097); assay type: binding; settings: read-out: FP with 2ME Inhibition [%] at 4 mM
MEASURE: inhibition at 4000 µM (%)

{"columns": ["SMI", "TARGET ENTITY", "inhibition at 4000 µM, %"],
 "data": [
  ["O=C(c1ccccc1)c1ccc(O)c(O)c1", "LecA (Pseudomonas aeruginosa, UniProt Q05097)", 39],
  ["O=C(c1ccc(Cl)cc1)c1ccc(O)c(O)c1", "LecA (Pseudomonas aeruginosa, UniProt Q05097)", 22]
]}

[A] CC(C)C(=O)c1ccc(O)c(O)c1
[B] N#Cc1cccc(O)c1O
Query: # returns the entry with the larger inhibition at 4000 µM; inputs A and B Mark your selection by writing its label.
Result: B
(B: 23%, A: 11%)

---

Target: 5FW‐LecA (Pseudomonas aeruginosa, UniProt Q05097)
Sequence (Q05097 2-122 limits assumed): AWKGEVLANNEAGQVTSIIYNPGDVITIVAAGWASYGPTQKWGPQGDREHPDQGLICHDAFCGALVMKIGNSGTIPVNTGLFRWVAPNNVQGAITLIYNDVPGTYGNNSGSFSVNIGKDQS
Experiment: protein-observed 19F
Format: binding
Details: 1.5 mM catechol, 200 µM 5FW-LecA; n.s.=not significant
MEASURE: PrOF NMR CSP of W42 [ppm] (ppm)

Some compounds with recorded PrOF NMR CSP of W42 [ppm]:
{"columns": ["SMI", "ASSAY RESULT"],
 "data": [
  ["CC(C)(C)c1ccc(O)c(O)c1", 0.130],
  ["CC(C)C(=O)c1ccc(O)c(O)c1", 0.08],
  ["O=C(c1ccc(Cl)cc1)c1ccc(O)c(O)c1", 0.185]
]}

[1] N#Cc1cccc(O)c1O
[2] O=C(c1ccccc1)c1ccc(O)c(O)c1
Query: API: POST /compare with 1 and 2 ; response names the item with higher PrOF NMR CSP of W42 [ppm]. Please indicate the selected item by its label.
Result: 2
(2: 0.110 ppm, 1: 0.045 ppm)

---

Target: LecA (Pseudomonas aeruginosa)
Sequence (Q05097 2-122 limits assumed): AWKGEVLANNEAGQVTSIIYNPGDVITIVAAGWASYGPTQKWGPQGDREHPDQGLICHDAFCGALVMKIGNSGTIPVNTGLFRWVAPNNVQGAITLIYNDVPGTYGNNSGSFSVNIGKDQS
Assay: thermal shift assay
Assay type: binding
Conditions: change of LecA melting point, 4 mM test compound, average of two experiments
MEASURE: TSA ΔT [K] (K)

{"columns": ["COMPOUND", "UNIT OF MEASUREMENT", "TSA ΔT [K]"],
 "data": [
  ["CC(C)(C)c1ccc(O)c(O)c1 [Compound 13, 4‐tert‐butyl catechol]", "K", "−15.4"]
]}

[I] Oc1ccccc1O [Compound 1, catechol]
[II] Cc1ccc(O)c(O)c1 [Compound 11, 4‐methyl catechol]
Query: Between the two listed entries I and II , which has its TSA ΔT [K] at the higher number? Please indicate the selected item by its label.
Result: I
